assay: amyloid nucleation score (Sup35N fusion, yeast selection) (log enrichment); library NNK3; higher = more nucleation; inactive = no reads after selection;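 note: zero at mode of non-aggregating sequences after 7 days selection at 30°C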
Measurement Label: amyloid nucleation score

Here is how some substances turned out for amyloid nucleation score.
Substance	Measurement Label	Result
WSLNWLMTFGLIYRQFSHLY	amyloid nucleation score	inactive
VIHSLLALTDLMSKSYLTIY	amyloid nucleation score	inactive
CVVCCG	amyloid nucleation score	inactive
GRMFVNVNFAIQCYMAFTYL	amyloid nucleation score	2.42
LTMALYWTCSLTHILSYGID	amyloid nucleation score	0.062

Specify amyloid nucleation score for RLVVVYLGTNSTSKEDISC and stop.
0.332

Identify amyloid nucleation score associated with the substance NAFDFSL
inactive

Name the recorded amyloid nucleation score of the item GCRGVTVHSADCCDLSIYLC in your answer.
2.31

Name the recorded amyloid nucleation score of the item SFFLDILRVWYYNVPNVPAR in your answer.
inactive

Indicate the recorded amyloid nucleation score value for this substance: SMHARGDL
inactive

Item LDNISVLIIFL : provide amyloid nucleation score
1.34

Please indicate amyloid nucleation score recorded for YGFNNWYKPSDLSRTPSESG
inactive

Identify the reported amyloid nucleation score for the following entry. PCHHFFFA
inactive

Tell us which amyloid nucleation score value is on record for ACSVHFFHARW
1.49

Identify measured amyloid nucleation score corresponding to RILCRVRYM
inactive

Read off the recorded amyloid nucleation score for NWIYYTMWSL
0.581

Tell me amyloid nucleation score reported for EYGSATVVWNHYFSPWVRFF
-0.213

Provide only the value of recorded amyloid nucleation score for SAAGKQLKSRFIGRR
inactive

Return amyloid nucleation score for the following substance: CLTYRSG
inactive

Give a short answer stating reported amyloid nucleation score for RVRQTFCIW .
1.75

// Input: ISTSLMDRRTKMLRQM . Output its amyloid nucleation score only.
inactive

###

experiment: amyloid nucleation score (Sup35N fusion, yeast selection) (log enrichment); library NNK2; higher = more nucleation; inactive = no reads after selection
Use fulfilled when the recorded amyloid nucleation score is no lower than 0.3; use not fulfilled when it is lower.

Hello, I need to know if GKRLSAFWQVVRSWLHIGGM has measured amyloid nucleation score not below 0.3. Thanks!
fulfilled

Is reported amyloid nucleation score greater than or equal to 0.3 here: QSYWSWLKKVSRFVYPHTRS
not fulfilled

###

assay: amyloid nucleation score (Sup35N fusion, yeast selection) (log enrichment); library NNK2; higher = more nucleation; inactive = no reads after selection
Parameter: amyloid nucleation score. Scope: all listed entries.
Number only, please.

Substance	amyloid nucleation score
HGTNTRADYFCIYPHGNG	-0.281
AHIVGMSSSWRLKRYISIES	0.768
SLRWDYLHLVWRHAEGGYGK	6.68
RMSRVEWIPHVDFYPTHGLI	-0.439
QARYFFTAARYITVLWKSTF	-0.487

Kindly indicate its recorded amyloid nucleation score. Item: SGSGSTAILGKTSGHVCLAI
0.713

Could you please provide reported amyloid nucleation score for CFVWIIRLYVQSRMLSTSNL ? Thanks!
-0.181

Supply recorded amyloid nucleation score for RYRTMSTRHPAYGVGGLLLM here.
0.544

Provide only the value of recorded amyloid nucleation score for CGWTDFMMYTWTEIMQIQLR
-1.03

Please give the documented amyloid nucleation score of FLAGVSVFWSYCDSTNLSNQ
-0.111

Please report the measured amyloid nucleation score for NIAMSDMDILLMQRAQKWLR
1.1

Assign amyloid nucleation score to the following record: VCDFIW
-1.48

Read off the recorded amyloid nucleation score for ALGYSRLTEYGLDRMVQTAC
0.908

Read off the recorded amyloid nucleation score for SGSGGSSLLFTIGEQGRRRI
-0.876
